# TGI annotations
System: XF 498 CNS
Test: NCI tumour cell line growth inhibition, 48 h

>  <compound>
CSc1ccc(-c2cn3ccsc3n2)c(O)c1

>  <TGI>
> 100 µM

$$$$
>  <compound>
Cc1nc(Nc2nnc(-c3cc([N+](=O)[O-])cc([N+](=O)[O-])c3C)o2)sc1C(=O)CC(=O)Cc1nc2ccc(Cl)cc2[nH]c1=O

>  <TGI>
> 100 µM

$$$$
>  <compound>
COc1cccc(/C=C(/C(=O)O)c2cc(OC)c(OC)c(OC)c2)c1

>  <TGI>
> 100 µM

$$$$
>  <compound>
CC(=O)CC(=O)N(CCN(C(=O)CC(C)=O)c1ccccc1)c1ccccc1

>  <TGI>
> 100 µM

$$$$

Challenge: Please look up its TGI: CC1(C)CC23C(=O)N(c4ccccc4)C(=Nc4ccccc4)NC2=CC(C#N)=C(C#N)C3O1 (configuration not stated)
Response given: > 100 µM

Challenge: TGI lookup needed for "Nn1c(CCCl)nc2c(Br)cc(Br)cc2c1=O" , thanks.
Response given: 56.1 µM

Challenge: Would you mind telling me what TGI value was observed for C[C@]12CCC[C@H](OC=O)C1(O)C[C@H](C(=O)O)CC2 (some centres not stated) ?
Response given: > 100 µM

Challenge: Give its TGI value. Item: NC1=NC(=O)N2CC12 (configuration not stated)
Response given: > 100 µM

* * *

Test system: U251 CNS
Assay: NCI tumour cell line growth inhibition, 48 h
measured property: TGI

Solved entries:
>  <molecule>
CSc1nc(NC2OCC(OC(C)=O)C(OC(C)=O)C2OC(C)=O)c(N=CC=Nc2c(NC3OCC(OC(C)=O)C(OC(C)=O)C3OC(C)=O)nc(SC)n(C)c2=O)c(=O)n1C (stereo not given)

>  <tested on>
U251 CNS

>  <measured property>
TGI

>  <experimental value>
> 100 µM

$$$$
>  <molecule>
COc1cc(-c2c[nH]c3ccccc23)nc(-c2c[nH]c3ccccc23)n1

>  <tested on>
U251 CNS

>  <measured property>
TGI

>  <experimental value>
14.9 µM

$$$$
>  <molecule>
O=C(O)CN1CCNCCN(CC(=O)O)CC1

>  <tested on>
U251 CNS

>  <measured property>
TGI

>  <experimental value>
> 100 µM

$$$$
>  <molecule>
CCOC(=O)C(NNS(=O)(=O)c1ccc(C)cc1)S(=O)(=O)C(F)(F)C(F)(F)C(F)(F)C(F)(F)F (stereo not given)

>  <tested on>
U251 CNS

>  <measured property>
TGI

>  <experimental value>
> 100 µM

$$$$
>  <molecule>
COc1ccc2cc(C(=O)c3ccccc3C(=O)O)ccc2c1

>  <tested on>
U251 CNS

>  <measured property>
TGI

>  <experimental value>
> 100 µM

$$$$

Challenge: Recorded TGI of COC(C)(C)C(O)C(O)C[C@H](C)C1CC=C2C1(C)CCC1[C@@]3(C)CCC(OC(C)=O)C(C)(C)C3CC(OC3OC(COC(C)=O)C(O)C(O)C3O)[C@@]21C (stereo not given in full) , please.
Response given: > 10 µM

* * *

System: MDA-N
Experiment: NCI tumour cell line growth inhibition, 48 h
measured property: TGI

>  <compound>
COC(=O)c1cc(Br)c(C(=O)C(Cl)(Cl)Cl)[nH]1

>  <experimental value>
> 100 µM

$$$$
>  <compound>
NC(=O)/N=C(\N)NC(=O)c1ccccc1

>  <experimental value>
> 100 µM

$$$$
>  <compound>
O=S(=O)(O)c1cc(S(=O)(=O)O)c2c(N=Nc3cccc4ccccc34)c(O)ccc2c1

>  <experimental value>
> 100 µM

$$$$
>  <compound>
N=c1ccn2c(n1)OC1C(OP(=O)(O)O)C(CO)OC12 (centres undefined)

>  <experimental value>
> 100 µM

$$$$
>  <compound>
CCOC(=O)c1sc2nc(SC)nc(Nc3ccc4c(c3)OCCCO4)c2c1N

>  <experimental value>
> 100 µM

$$$$
>  <compound>
Cc1cc(C)c2c(=O)cc(-c3ccc(Cl)cc3)[nH]c2n1

>  <experimental value>
25 µM

$$$$
>  <compound>
CON(C)C(=O)C(Cc1ccccc1)NC(=O)OC(C)(C)C (centres undefined)

>  <experimental value>
> 100 µM

$$$$
>  <compound>
C=C(C)C(=O)NC(N)=NC#N

>  <experimental value>
216 µM

$$$$
>  <compound>
CC(C)C1C(=O)N2CCCC2C2(O)OC(NC(=O)C3C=C4c5cccc6[nH]cc(c56)CC4N(C)C3)(C(C)C)C(=O)N12 (centres undefined)

>  <experimental value>
67.5 µM

$$$$
>  <compound>
O=[N+]([O-])C(/C(Cl)=C(/Cl)N1CCCCC1)=C1\NCCO1

>  <experimental value>
> 100 µM

$$$$

Challenge: So what does the record say about TGI for "Cc1cc(Cl)ccc1Nc1sc(C(=O)c2cc3cc(Cl)ccc3o2)c(N)c1C#N" ?
Response given: > 100 µM

Challenge: Give its TGI value. Item: CCCCCCCC1c2cc3[nH]c(cc4nc(cc5[nH]c(cc(n2)[C@@]1(C)CC(=O)N(C)C)c(C)c5CCC(=O)O)C(CCC(=O)O)=C4C)cc3C (some centres undefined)
Response given: > 100 µM

Challenge: TGI lookup needed for "COc1ccc(-c2oc3c(CC(=O)O)cccc3c(=O)c2OC)cc1" , thanks.
Response given: > 100 µM

Challenge: Look up TGI for this compound: "COC(=O)c1cc(C#N)[nH]c1-c1ccsc1"
Response given: > 100 µM

Challenge: So what does the record say about TGI for "CN(C)c1ccc(N=Nc2cccc3ccoc23)cc1" ?
Response given: > 100 µM

* * *

Tested on: SNB-75 CNS
Assay: NCI tumour cell line growth inhibition, 48 h
measured property: TGI (µM)
Write the number in µM without appending the unit.

Challenge: So what's the measured TGI for this one? "Cc1ccc(-c2csc(N(C(=O)N3CCN(c4cc5c(cc4F)c(=O)c(C(=O)O)cn5C4CC4)CC3)c3ccccc3)n2)cc1"
Response given: 4.17

Challenge: Recorded TGI for "Cc1cc(Cl)ccc1Nc1sc(C(=O)c2cc3cc(Cl)ccc3o2)c(N)c1C#N" , please?
Response given: 20.8

Challenge: Requested field: TGI. Item: "C=C(C)C(=O)NC(N)=NC#N"
Response given: 289

* * *

System: DU-145 prostate
Test: NCI tumour cell line growth inhibition, 48 h
measured property: TGI (µM)
Give a bare numeral; the unit µM is implied.

Consider the worked cases shown below.
>  <molecule>
O=C(NO)c1cccc(OCc2ccc(Br)cc2)c1

>  <TGI (µM)>
13.7

$$$$
>  <molecule>
COc1ccc(-c2cc(-c3ccc(Nc4nc(Nc5ccc(Cl)cc5)nc(Nc5ccc(Cl)cc5)n4)cc3)no2)cc1

>  <TGI (µM)>
36.3

$$$$
>  <molecule>
COc1cc(N2CCC(N3CCN(C)CC3)CC2)ccc1Nc1ncc(Cl)c(Nc2ccccc2P(C)(C)=O)n1

>  <TGI (µM)>
20.5

$$$$

# evaluate next
Challenge: Please tell me: TGI of CCC1(O)CC(OC2CC(N(C)C)C(OC3CC(O)C(OC4OC(C)C(=O)C=C4N)C(C)O3)C(C)O2)c2c(O)c3c(c(O)c2C1C(=O)OC)C(=O)c1cccc(O)c1C3=O (stereo not given) , system DU-145 prostate?
Response given: 0.0461

* * *

Tested on: SK-MEL-5 melanoma
Test: NCI tumour cell line growth inhibition, 48 h
measured property: TGI (µM)
Value expressed in µM; do not type the unit.

Some compounds with known TGI results, for comparison:
>  <compound>
CCOC(=O)/C(=C/c1ccc(OC)c(OC)c1)C(=O)c1ccccc1

>  <TGI (µM)>
29.5

$$$$
>  <compound>
CC(C)=CCNc1ncnc2c1ncn2CCC(=O)OC(C)(C)C

>  <TGI (µM)>
70

$$$$

Challenge: Which measured TGI value corresponds to CCN1C(=O)N(CC)C2C1NN=c1s/c(=C3\C(=O)N(CCC(C)C)c4ccccc43)c(=O)n12 (stereo unspecified) ?
Response given: 3.41

Challenge: Which TGI value is on record for "CCCCCCN(CCCCCC)C(=N)c1ccnc2ccccc12" ?
Response given: 3.45

Challenge: What value of measured TGI is listed for COc1ccccc1C1C2=C(COC2=O)OC(C)(C)Oc2cc3c(cc21)OCO3 (stereo unspecified) ?
Response given: 21

* * *

Listed here are compounds together with their documented TGI.
Test system: OVCAR-3 ovarian
Assay: NCI tumour cell line growth inhibition, 48 h

>  <smiles representation>
CC(=O)c1ccc(-c2oc(-c3ccccc3)cc2-c2ccc3c(c2)OCO3)s1

>  <tested on>
OVCAR-3 ovarian

>  <experimental value>
> 100 µM

$$$$
>  <smiles representation>
C=C1C(=O)O[C@@H]2[C@H]1CC[C@H](C)[C@]1(O)CCC(=O)[C@@]21C

>  <tested on>
OVCAR-3 ovarian

>  <experimental value>
> 10 µM

$$$$
>  <smiles representation>
CN(CCc1ccc(Br)cc1)CCN1CCCCC1

>  <tested on>
OVCAR-3 ovarian

>  <experimental value>
> 100 µM

$$$$

Could you now look at the following compound, please?
Challenge: Given the entry "CC(=O)C1(c2ccccc2)CCN(Cn2sc3nc(C)cc(C)c3c2=O)CC1" , what TGI was observed with OVCAR-3 ovarian?
Response given: > 100 µM
